# credit: the supplement of paper PMC10567573

B1: PKD2L1 (parent)
chain: TLARCAKDILGFAVMFFIVFFAYA

Variants of: B1
procedure details: protein stability index of a GFP-peptide fusion (GPS, HEK-293T) (PSI 1-6); higher = more stable;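 further: lentivirally expressed fusions sorted by FACS into six bins by GFP to DsRed ratio, PSI derived from sequencing read proportions per bin multiplied by bin number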
condition: c terminus: a fixed tail appended
Kind request: treat 2 as inclusive, so protein stability index at 2 or higher is Y, anything lower is N.

K7I    Y
F21A    Y
V14Q    Y

Problem: Determine whether this variant has protein stability index no lower than 2: `G11T`
Result: Y

Problem: Determine whether this variant has protein stability index no lower than 2: `A3R`
Result: N

Problem: Determine whether this variant has protein stability index no lower than 2: `F20V`
Result: Y

Problem: Is it the case that `L2Q` has protein stability index reaching or exceeding 2?
Result: Y

Problem: Check this variant for protein stability index at or above 2: `A13N`
Result: Y

Problem: Given the entry `I9E` , answer whether its protein stability index meets or surpasses 2.
Result: N
